# credit: the METLIN SMRT retention time set (Domingo-Almenara et al. 2019)

Assay: gradient 5% acetonitrile 3 min, to 50% in 2 min, to 85% in 15 min, held 3 min, 100 µL/min
Conditions: column: Zorbax Extend-C18 2.1 x 50 mm; eluents: water / acetonitrile, 0.1% formic acid
Metric: RP-LC retention time (s)

P: CC(C)CN1CCN(C(=O)c2nc(-c3ccnc(N4CCCCC4)c3)no2)CC1
Q: CCc1ccc(NC(=O)Cn2ccc3ccc(-c4nnc(C)o4)cc32)cc1
## Task Between item P and item Q , which reported RP-LC retention time is smaller? Refer to your chosen entry by its label in the reply.
## Result P
(P: 588 s, Q: 885 s)

---

Experiment: gradient 5% acetonitrile 3 min, to 50% in 2 min, to 85% in 15 min, held 3 min, 100 µL/min
Details: column: Zorbax Extend-C18 2.1 x 50 mm; eluents: water / acetonitrile, 0.1% formic acid
Metric: RP-LC retention time (s)

- Compound: "O=C(C1=CN(c2cc(F)cc(F)c2)c2ccccc2S1(=O)=O)N1CCCC1"
  Measure unit: "s"
  RP-LC retention time: 786
- Compound: "CCCN(CC1CCOC1)C(=O)c1cccc(Cl)c1 (stereo unspecified)"
  Measure unit: "s"
  RP-LC retention time: 814

1: CCc1cccc(C)c1NC(=O)Cn1nc2c3ccccc3ncn2c1=O
2: CCCNC(=O)c1cc2c(-c3cccs3)nn(-c3ccccc3)c2n1CC
## Task Between item 1 and item 2 , which reported RP-LC retention time is smaller? Refer to your chosen entry by its label in the reply.
## Result 1
(1: 705 s, 2: 1100 s)

P: Cc1cccc(-c2nc3nc(C)cc(Nc4cccc5nsnc45)n3n2)c1
Q: CNc1nccc(N2CCC(CC(=O)O)CC2)n1
## Task Between item P and item Q , which reported RP-LC retention time is smaller? Refer to your chosen entry by its label in the reply.
## Result Q
(Q: 576 s, P: 984 s)

a: CC1(C)CC(=O)c2cn(-c3ccccc3)c(=O)c(C(=O)NC3CCCC3)c2C1
b: CN(C)c1ccc2c(c1)CN(Cc1ccccc1C#N)CCO2
## Task Hi, I'm comparing a with b and wondering which one has the bigger number for RP-LC retention time. Any idea? Refer to your chosen entry by its label in the reply.
## Result a
(a: 932 s, b: 592 s)

a: CCC(=O)N1CCc2cc(N3CC(C(=O)Nc4ccc(OC)c(F)c4)CC3=O)ccc21 (stereo unspecified)
b: Cc1cccc(NS(=O)(=O)c2cc(-c3cc(C(F)(F)F)on3)sc2C)c1
## Task Hi, I'm comparing a with b and wondering which one has the bigger number for RP-LC retention time. Any idea? Refer to your chosen entry by its label in the reply.
## Result b
(b: 1150 s, a: 738 s)

---

Assay: gradient 5% acetonitrile 3 min, to 50% in 2 min, to 85% in 15 min, held 3 min, 100 µL/min
Conditions: column: Zorbax Extend-C18 2.1 x 50 mm; eluents: water / acetonitrile, 0.1% formic acid
Metric: RP-LC retention time (s)

See these solved cases before continuing.
- Compound: "CN(C)C(CNC(=O)c1cc(-c2ccccc2)on1)c1ccco1 (centres undefined)"
  Measure unit: "s"
  RP-LC retention time: 653
- Compound: "CCn1c(=O)c(C(=O)NCc2cccnc2)nc2cccnc21"
  Measure unit: "s"
  RP-LC retention time: 555
- Compound: "Cc1ccc(-c2nnc(Cc3nc(-c4ccc(Cl)cc4)no3)o2)cc1F"
  Measure unit: "s"
  RP-LC retention time: 1190

1: CC(C)CC(=O)Nc1ccc(N2CCOCC2)cc1C(=O)O
2: CCOc1ccc(OCC)c(NS(=O)(=O)c2cc(-c3cc(CC)no3)cs2)c1
## Task Hi, I'm comparing 1 with 2 and wondering which one has the bigger number for RP-LC retention time. Any idea? Refer to your chosen entry by its label in the reply.
## Result 2

A: O=C(CCCS(=O)(=O)Cc1ccccc1)Nc1ccc2c(c1)OCCO2
B: COc1ccc(NC(=O)CSc2cc(N3CCN(c4ccccc4F)CC3)ncn2)cc1
## Task Hi, I'm comparing A with B and wondering which one has the bigger number for RP-LC retention time. Any idea? Refer to your chosen entry by its label in the reply.
## Result B

I: CCN1CCN(c2c(S(=O)(=O)c3ccc(Cl)cc3)cnc3cc4c(cc23)OCCO4)CC1
II: Cc1ccc(CNC(=O)C2(C)CCCN(C(=O)Nc3cccc(F)c3)C2)cc1 (centres undefined)
## Task Hi, I'm comparing I with II and wondering which one has the bigger number for RP-LC retention time. Any idea? Refer to your chosen entry by its label in the reply.
## Result II

a: O=C(Nc1cccn2c(C3CCC3)nnc12)c1cnccn1
b: COc1ccc(C2Cn3nnc(-c4nc(-c5ccsc5)no4)c3CO2)cc1 (centres undefined)
## Task Hi, I'm comparing a with b and wondering which one has the bigger number for RP-LC retention time. Any idea? Refer to your chosen entry by its label in the reply.
## Result b

---

Test: gradient 5% acetonitrile 3 min, to 50% in 2 min, to 85% in 15 min, held 3 min, 100 µL/min
Details: column: Zorbax Extend-C18 2.1 x 50 mm; eluents: water / acetonitrile, 0.1% formic acid
Metric: RP-LC retention time (s)

- Molecule: "Cc1ccc(CNC(=O)C2CCN(c3cncnc3N3CCCCC3)CC2)o1"
  Measure unit: "s"
  RP-LC retention time: 643
- Molecule: "Cc1ccc(C)c(-c2cc3c(=O)n(Cc4nc(-c5ccc(F)cc5)no4)ncn3n2)c1"
  Measure unit: "s"
  RP-LC retention time: 1210

1: Cc1nc(-c2cccc(NC(=O)c3cncc(Br)c3)c2)no1
2: Cc1sc(-c2cc(C(F)(F)F)on2)cc1S(=O)(=O)Nc1ccc(Br)cc1F
3: CC(=O)N1CCN(c2ccnc3c2c(=O)n(CC(=O)Nc2cc(C)on2)c(=O)n3C)CC1
## Task Task field, ranking: reported RP-LC retention time, descending order. Give your ranking as a list of the labels in the requested order.
## Result 2, 1, 3
(2: 1230 s, 1: 834 s, 3: 579 s)

I: Cc1ccc(Cn2c(=O)c3nn(C)cc3n3c(=O)n(Cc4ccc(F)cc4)nc23)cc1
II: Cn1cnc(S(=O)(=O)N2CCN(Cc3cccc(F)c3)C3(CCOCC3)C2)c1
## Task Hi, I'm comparing I with II and wondering which one has the bigger number for RP-LC retention time. Any idea? Refer to your chosen entry by its label in the reply.
## Result I
(I: 947 s, II: 598 s)

I: Cn1cnc2ccc(-c3noc(-c4cccs4)n3)cc21
II: Cc1ccc(S(=O)(=O)C2=C(O)C(=O)N(Cc3ccco3)C2c2ccc(Cl)cc2)cc1 (stereo not given)
## Task Between item I and item II , which reported RP-LC retention time is smaller? Refer to your chosen entry by its label in the reply.
## Result I
(I: 685 s, II: 982 s)

---

Assay: gradient 5% acetonitrile 3 min, to 50% in 2 min, to 85% in 15 min, held 3 min, 100 µL/min
Conditions: column: Zorbax Extend-C18 2.1 x 50 mm; eluents: water / acetonitrile, 0.1% formic acid
Metric: RP-LC retention time (s)

See these solved cases before continuing.
- Compound: "Cc1ccc(C)c(NS(=O)(=O)c2cc3c(s2)CCN(C(=O)C2CC2)C3)c1"
  RP-LC retention time / s: 864
- Compound: "CCCn1nnc(NCc2ccc(-c3ccc(Cl)cc3Cl)o2)n1"
  RP-LC retention time / s: 1200
- Compound: "COc1ccc(Nc2nccc(NCCO)n2)cc1"
  RP-LC retention time / s: 610
- Compound: "CC(=O)N1CCc2cc(S(=O)(=O)C(C)CC(=O)N3CCN(c4ccccc4)CC3)ccc21 (centres undefined)"
  RP-LC retention time / s: 787
- Compound: "Cc1ccc(C)c(NC(=O)C2CCN(S(=O)(=O)c3cc(-c4noc(C5CC5)n4)cs3)CC2)c1"
  RP-LC retention time / s: 1020

P: COCC1CN(C(C)=O)CC12CCN(C(=O)C1CC=CCC1)CC2 (centres undefined)
Q: Cc1cc(C)cc(S(=O)(=O)N2CCC(C(=O)NCCc3csc(-c4ccccc4)n3)CC2)c1
## Task Hi, I'm comparing P with Q and wondering which one has the bigger number for RP-LC retention time. Any idea? Refer to your chosen entry by its label in the reply.
## Result Q

a: O=C(Nc1ccc(Cl)cc1)c1cnc(-c2ccc(F)cc2)nc1-c1ccncc1
b: COC(=O)c1cccc(NC(=O)C2CCN(c3c(C#N)cnc4ccccc34)CC2)c1
## Task Hi, I'm comparing a with b and wondering which one has the bigger number for RP-LC retention time. Any idea? Refer to your chosen entry by its label in the reply.
## Result a
(a: 986 s, b: 675 s)

I: CC(C(=O)NC1CCN(Cc2ccccc2)CC1)n1c(=O)c(C(F)(F)F)nc2ccccc21 (centres undefined)
II: Cc1cc(Cl)ccc1OCc1nc(-c2ccc3c(c2)nnn3CCC(=O)N2CCCC2)no1
## Task Hi, I'm comparing I with II and wondering which one has the bigger number for RP-LC retention time. Any idea? Refer to your chosen entry by its label in the reply.
## Result II
